log10 GI50 data for A431 cancer cell follow.
The common logarithm of GI50 in µg/mL is what is listed.

The cases that follow already have their log10 GI50 on record.
OCCN(CCO)CC1COc2cc3ncnc(Nc4cccc(Br)c4)c3cc2O1 (centres unmarked)	-0.21
COCC1COc2cc3ncnc(Nc4ccc(F)c(Cl)c4)c3cc2O1 (centres unmarked)	-0.22
COC[C@H]1Oc2cc3ncnc(Nc4cccc(Cl)c4)c3cc2O[C@@H]1COC	0.37
CN1CCN(CC2COc3cc4ncnc(Nc5cccc(Br)c5)c4cc3O2)CC1 (centres unmarked)	-0.66
COCC1COc2cc3ncnc(Nc4cccc(C(F)(F)F)c4)c3cc2O1 (centres unmarked)	-0.37
COC[C@H]1Oc2cc3ncnc(Nc4cccc(Br)c4)c3cc2O[C@@H]1COC	0.46
C#Cc1cccc(Nc2ncnc3cc4c(cc23)O[C@H](COC)[C@@H](COC)O4)c1	0.28

For the next question, use this molecule.
Consider the molecule CC(C)[C@H](CO)NCC1COc2cc3ncnc(Nc4cccc(Br)c4)c3cc2O1 (some centres unmarked) and give its recorded log10 GI50.
0.28

* * *

Each entry below lists one item and its recorded solubility thermodynamic value.
Protocol: Measurement of the solubility of compounds in water (HPLC calibration curve)
Format: physicochemical
Applied conditions: supersaturated in 1 ml of water, centrifuged, supernatant by HPLC; read-out: Solubility (mg/10 ml of water)
Entry rule: numbers only, all in µg/mL.

COCC1COc2cc3ncnc(Nc4cc(Cl)cc(Cl)c4)c3cc2O1 (stereo not shown)	8
COCC1COc2cc3ncnc(Nc4cccc(C(F)(F)F)c4)c3cc2O1 (stereo not shown)	74
COCC1COc2cc3ncnc(Nc4cccc(Br)c4)c3cc2O1 (stereo not shown)	241
COCC1COc2cc3ncnc(Nc4cc(F)c(F)c(F)c4)c3cc2O1 (stereo not shown)	45
COCC1COc2cc3ncnc(Nc4ccc(C)c(Cl)c4)c3cc2O1 (stereo not shown)	457

Consider the compound COCC1COc2cc3ncnc(Nc4cccc(F)c4)c3cc2O1 (stereo not shown) and give its recorded solubility thermodynamic.
1040

Consider the compound COc1cc2ncnc(Nc3cccc(Br)c3)c2cc1OC [DP153035, reference compound] and give its recorded solubility thermodynamic.
20

* * *

Protocol: Measurement of the solubility of compounds in water (HPLC calibration curve)
Format: physicochemical
Applied conditions: supersaturated in 1 ml of water, centrifuged, supernatant by HPLC
Structures can show the parent of a compound that is named as a salt.
Each entry below lists one item and its recorded Solubility (mg/10 ml of water) value.

The cases that follow already have their Solubility (mg/10 ml of water) on record.
OCCN(CCO)CC1COc2cc3ncnc(Nc4cccc(Br)c4)c3cc2O1 (stereo not drawn) [Example 33, hydrochloride]	>>1,000 mg/10 ml of water
OCCNCC1COc2cc3ncnc(Nc4cccc(Br)c4)c3cc2O1 (stereo not drawn) [Example 35, hydrochloride]	>>1,000 mg/10 ml of water
Cl.OCCNCC1COc2cc3ncnc(Nc4cccc(I)c4)c3cc2O1 (stereo not drawn)	>>1,000 mg/10 ml of water
Brc1cccc(Nc2ncnc3cc4c(cc23)OC(CN2CCOCC2)CO4)c1 (stereo not drawn) [Example 31, hydrochloride]	>>1,000 mg/10 ml of water
Cl.Ic1cccc(Nc2ncnc3cc4c(cc23)OCC(CN2CCOCC2)O4)c1 (stereo not drawn)	>>1,000 mg/10 ml of water

Consider the compound CN1CCN(CC2COc3cc4ncnc(Nc5cccc(I)c5)c4cc3O2)CC1.Cl (stereo not drawn) and give its recorded Solubility (mg/10 ml of water).
>>1,000 mg/10 ml of water
